target: UniProt:O43613; assay: FLIPR Ca2+ Flux Assay, orexin-1 receptor (hOXIR FLIPR); settings: CHO cells expressing the orexin-1 receptor (method text: rat; table head: hOXIR); agonist 70 pM Ala-6,12 human orexin-A
pIC50: −log10 of the molar value.
For each record, write down the corresponding pIC50.

**Query** Item CC(C)Oc1ccccc1C(=O)N1C[C@H](n2ncc(C(C)(C)O)n2)CC[C@H]1C [Example 17] : provide pIC50
**Result** 5.43

**Query** Item Cc1noc(-c2ccccc2C(=O)N2C[C@H](n3ncc(C(C)(C)O)n3)CC[C@H]2C)n1 [Example 36] : provide pIC50
**Result** < 5.00

**Query** Item Cc1nn([C@@H]2CC[C@@H](C)N(C(=O)c3cccnc3-c3ccccc3)C2)nc1C(C)(C)O [Example 73] : provide pIC50
**Result** 5.61

**Query** Item C[C@@H]1CC[C@@H](n2ncc(C(C)(C)O)n2)CN1C(=O)c1ccccc1C1(C#N)CC1 [Example 1] : provide pIC50
**Result** 5.94

**Query** Item C[C@@H]1CC[C@@H](n2ncc(C(C)(C)O)n2)CN1C(=O)c1cccnc1-n1nccn1 [Example 59] : provide pIC50
**Result** < 5.00

**Query** Item COC(=O)c1ccccc1C(=O)N1C[C@H](n2ncc(C(C)(C)O)n2)CC[C@H]1C [Example 20] : provide pIC50
**Result** < 5.00

**Query** Item Cc1nc(-c2cc(F)ccc2C(=O)N2C[C@H](n3ncc(C(C)(C)O)n3)CC[C@H]2C)no1 [Example 40] : provide pIC50
**Result** < 5.00

**Query** Item C[C@@H]1CC[C@@H](n2cc(C(C)(C)O)cn2)CN1C(=O)c1ccccc1OCC(F)F [Example 79] : provide pIC50
**Result** < 5.00

**Query** Item C[C@@H]1CC[C@@H](n2cc([C@@H](O)C(F)(F)F)cn2)CN1C(=O)c1ccccc1-n1nccn1 [Example 102] : provide pIC50
**Result** < 5.00

**Query** Item C[C@@H]1CC[C@@H](n2ncc(C(C)(C)O)n2)CN1C(=O)c1cc(F)ccc1-n1nccn1 [Example 38] : provide pIC50
**Result** < 5.00

**Query** Item C[C@@H]1CC[C@@H](n2ncc(C(C)(C)O)n2)CN1C(=O)c1cccc(Oc2ccccc2)c1 [Example 50] : provide pIC50
**Result** < 5.00

**Query** Item Cc1noc(-c2ccc(F)cc2C(=O)N2C[C@H](n3ncc(C(C)(C)O)n3)CC[C@H]2C)n1 [Example 35] : provide pIC50
**Result** < 5.00

**Query** Item CCOc1ncccc1C(=O)N1C[C@H](n2cc(C(C)(C)O)cn2)CC[C@H]1C [Example 89] : provide pIC50
**Result** < 5.00

**Query** Item C[C@@H]1CC[C@@H](n2ncc(C(C)(C)O)n2)CN1C(=O)c1cccc(F)c1-n1nccn1 [Example 31] : provide pIC50
**Result** < 5.00

**Query** Item C[C@@H]1CC[C@@H](n2ncc(C(C)(C)O)n2)CN1C(=O)c1sccc1-n1nccn1 [Example 32] : provide pIC50
**Result** < 5.00

**Query** Item C[C@@H]1CC[C@@H](n2cc(C(C)(C)O)cn2)CN1C(=O)c1ccccc1CC(F)F [Example 99] : provide pIC50
**Result** < 5.00

----------
target: UniProt:O43613; assay: FLIPR Ca2+ Flux Assay, orexin-1 receptor (hOXIR FLIPR); conditions: CHO cells expressing the orexin-1 receptor (method text: rat; table head: hOXIR); agonist 70 pM Ala-6,12 human orexin-A
Assay endpoint: IC50

**Query** Item C[C@@H]1CC[C@@H](n2ncc(C(C)(C)O)n2)CN1C(=O)c1ccccc1[C@H]1CC1(F)F : provide IC50
**Result** > 10 µM

**Query** Item Cc1ccc(-n2nccn2)c(C(=O)N2C[C@H](n3ncc(C(C)(C)O)n3)CC[C@H]2C)c1 : provide IC50
**Result** 3.09 µM

**Query** Item CC(O)c1cnn([C@@H]2CC[C@@H](C)N(C(=O)c3cccnc3OCC(F)F)C2)n1 (some centres unmarked) : provide IC50
**Result** > 10 µM

**Query** Item C[C@@H]1CC[C@@H](n2ncc(C(C)(C)O)n2)CN1C(=O)c1nccnc1-n1cccn1 : provide IC50
**Result** > 10 µM

**Query** Item Cc1ccc(C(=O)N2C[C@H](n3ncc(C(C)(C)O)n3)CC[C@H]2C)c(-n2nccn2)n1 : provide IC50
**Result** > 10 µM

**Query** Item C[C@@H]1CC[C@@H](n2ncc(C(C)(C)O)n2)CN1C(=O)c1ccccc1-c1ccccc1 : provide IC50
**Result** 0.483 µM

**Query** Item C[C@@H]1CC[C@@H](n2cc(C(C)(C)O)cn2)CN1C(=O)c1cccnc1-c1ccccc1 : provide IC50
**Result** > 10 µM

**Query** Item C[C@@H]1CC[C@@H](n2ncc(C(C)(C)O)n2)CN1C(=O)c1cccnc1OCC(F)(F)F : provide IC50
**Result** 8.79 µM

----------
For each record, write down the corresponding pIC50.
biological target: UniProt:O43613; test: FLIPR Ca2+ Flux Assay, orexin-1 receptor (hOXIR FLIPR); details: CHO cells expressing the orexin-1 receptor (method text: rat; table head: hOXIR); agonist 70 pM Ala-6,12 human orexin-A
pIC50: −log10 of the molar value.

**Query** Report value only: pIC50, UniProt:O43613, C[C@@H]1CC[C@@H](n2ncc(C(C)(C)O)n2)CN1C(=O)c1ccccc1OCC(F)F [Example 18]
**Result** < 5.00

**Query** Report value only: pIC50, UniProt:O43613, Cc1c(C(C)(C)O)cnn1[C@@H]1CC[C@@H](C)N(C(=O)c2ccccc2-n2nccn2)C1 [Example 108]
**Result** 5.47

**Query** Report value only: pIC50, UniProt:O43613, C[C@@H]1CC[C@@H](n2ncc(C(C)(C)O)n2)CN1C(=O)c1ccccc1-n1nccn1 [Example 25]
**Result** 6.23

**Query** Report value only: pIC50, UniProt:O43613, C[C@@H]1CC[C@@H](n2cc(C(C)(C)O)cn2)CN1C(=O)c1ccccc1OC(F)(F)F [Example 83]
**Result** < 5.00

**Query** Report value only: pIC50, UniProt:O43613, C[C@@H]1CC[C@@H](n2ncc(C(C)(C)O)n2)CN1C(=O)c1ccccc1OC(F)F [Example 21]
**Result** < 5.00

**Query** Report value only: pIC50, UniProt:O43613, CC(C)c1ccccc1C(=O)N1C[C@H](n2cc(C(C)(C)O)cn2)CC[C@H]1C [Example 82]
**Result** < 5.00

**Query** Report value only: pIC50, UniProt:O43613, Cc1cccc(C(=O)N2C[C@H](n3ncc(C(C)(C)O)n3)CC[C@H]2C)c1-n1nccn1 [Example 46]
**Result** < 5.00

**Query** Report value only: pIC50, UniProt:O43613, CCCc1ccccc1C(=O)N1C[C@H](n2cc(C(C)(C)O)cn2)CC[C@H]1C [Example 76]
**Result** < 5.00

----------
target: hOXIR (orexin-1 receptor) (Homo sapiens, UniProt O43613); experiment: FLIPR Ca2+ Flux Assay, orexin-1 receptor (hOXIR FLIPR); settings: CHO cells expressing the orexin-1 receptor (method text: rat; table head: hOXIR); agonist 70 pM Ala-6,12 human orexin-A
For each record, write down the corresponding IC50.
Field: numeric (µM). Do not append units.

**Query** Report value only: IC50, hOXIR (orexin-1 receptor) (Homo sapiens, UniProt O43613), CCCc1ccccc1C(=O)N1C[C@H](n2ncc(C(C)(C)O)n2)CC[C@H]1C [Example 4]
**Result** 8.11

**Query** Report value only: IC50, hOXIR (orexin-1 receptor) (Homo sapiens, UniProt O43613), C[C@@H]1CC[C@@H](n2cc([C@@](C)(O)C(F)(F)F)cn2)CN1C(=O)c1ccccc1-n1nccn1 [Example 105]
**Result** 2.73

**Query** Report value only: IC50, hOXIR (orexin-1 receptor) (Homo sapiens, UniProt O43613), C[C@@H]1CC[C@@H](n2cc(C(C)(O)C(F)(F)F)cn2)CN1C(=O)c1ccccc1-n1nccn1 (some centres unmarked) [Example 104]
**Result** 2.01

**Query** Report value only: IC50, hOXIR (orexin-1 receptor) (Homo sapiens, UniProt O43613), Cc1nn([C@@H]2CC[C@@H](C)N(C(=O)c3ccc(F)cc3-n3nccn3)C2)nc1C(C)(C)O [Example 72]
**Result** 1.29

----------
molecular target: hOXIR (orexin-1 receptor) (Homo sapiens); assay: FLIPR Ca2+ Flux Assay, orexin-1 receptor (hOXIR FLIPR); details: CHO cells expressing the orexin-1 receptor (method text: rat; table head: hOXIR); agonist 70 pM Ala-6,12 human orexin-A
pIC50: −log10 of the molar value.
Assay endpoint: pIC50

**Query** Report value only: pIC50, hOXIR (orexin-1 receptor) (Homo sapiens), Cc1cnn(-c2ncccc2C(=O)N2C[C@H](n3ncc(C(C)(C)O)n3)CC[C@H]2C)c1
**Result** < 5.00

**Query** Report value only: pIC50, hOXIR (orexin-1 receptor) (Homo sapiens), C[C@@H]1CC[C@@H](n2ncc(C(C)(C)O)n2)CN1C(=O)c1ccccc1N1CCCC1
**Result** 5.55

**Query** Report value only: pIC50, hOXIR (orexin-1 receptor) (Homo sapiens), C[C@@H]1CC[C@@H](n2cc(C(C)(C)O)cn2)CN1C(=O)c1cccnc1-n1cccn1
**Result** < 5.00

**Query** Report value only: pIC50, hOXIR (orexin-1 receptor) (Homo sapiens), COc1ccc(C(=O)N2C[C@H](n3ncc(C(C)(C)O)n3)CC[C@H]2C)c(-n2nccn2)c1
**Result** < 5.00

**Query** Report value only: pIC50, hOXIR (orexin-1 receptor) (Homo sapiens), C[C@@H]1CC[C@@H](n2ncc(-c3ccccc3)n2)CN1C(=O)c1ccccc1-n1nccn1
**Result** 7.27

**Query** Report value only: pIC50, hOXIR (orexin-1 receptor) (Homo sapiens), Cc1noc(-c2cc(F)ccc2C(=O)N2C[C@H](n3ncc(C(C)(C)O)n3)CC[C@H]2C)n1
**Result** < 5.00

**Query** Report value only: pIC50, hOXIR (orexin-1 receptor) (Homo sapiens), C[C@@H]1CC[C@@H](n2ncc(C(C)(C)O)n2)CN1C(=O)c1ccccc1-n1ncnn1
**Result** < 5.00

**Query** Report value only: pIC50, hOXIR (orexin-1 receptor) (Homo sapiens), C[C@@H]1CC[C@@H](n2cc(C(C)(C)O)cn2)CN1C(=O)c1ccccc1[C@@H]1CC1(F)F
**Result** 5.58
